From: patent US4352803A

test system: Klebsiella pneumoniae No. 13; assay: In vitro antibacterial activity (MIC), Klebsiella pneumoniae No. 13; assay type: cell-based; conditions: Klebsiella pneumoniae, NO.13, read-out: minimum inhibitory concentration (MIC)
# MIC per entry
Provide only the numeric value, understood in µg/mL.

| MOLECULE | U | MIC |
| --- | --- | --- |
| CCn1cc(C(=O)O)c(=O)c2ccc(C)nc21 | µg/mL | 12.5 |
| CCn1cc(C(=O)O)c(=O)c2ccc(N3CCNCC3)nc21 | µg/mL | 12.5 |
| CC1=C(C(=O)O)N2C(=O)[C@@H](NC(=O)[C@H](N)c3ccccc3)[C@H]2SC1 | µg/mL | 6.25 |

Input line: Fill in the blank: the reported MIC of `CCn1cc(C(=O)O)c(=O)c2cc(Cl)c(N3CCNCC3)nc21.Cl` is ____.
Output line: 1.56

----------
test: Plasma level in dogs; assay type: in vivo, Beagle dogs; conditions: dog, plasma, 3 hr after oral 25 mg/kg
MEASUREMENT LABEL: concentration at 3 h (ng/mL)
I only need the number, in ng/mL, no unit after it.

| COMPOUND | U | concentration at 3 h |
| --- | --- | --- |
| CCn1cc(C(=O)O)c(=O)c2cc(F)c(N3CCNCC3)nc21 [Compound 1] | ng/mL | 5900 |

Input line: What measured concentration at 3 h goes with C=Cn1cc(C(=O)O)c(=O)c2cc(F)c(N3CCNCC3)nc21 [Compound 2] ?
Output line: 2800

----------
Overview of reported LD50 at 168 h across a group of compounds:
Assay: in vivo
Conditions: mouse, in vivo, po
Method: The number of dead mice was counted after 7 days, and the value of median lethal dose (LD50, mg/kg) was calculated in accordance with the Behrens-Kaerber method.

Some compounds with known LD50 at 168 h results, for comparison:
| MOLECULE | MEASUREMENT LABEL | OBSERVED MEASUREMENT |
| --- | --- | --- |
| C=Cn1cc(C(=O)O)c(=O)c2cc(F)c(N3CCNCC3)nc21 | LD50 at 168 h | > 4000 mg/kg |
| CCn1cc(C(=O)O)c(=O)c2cc(Cl)c(N3CCNCC3)nc21.Cl | LD50 at 168 h | > 2000 mg/kg |
| CCn1cc(C(=O)O)c(=O)c2cc(F)c(N3CCNCC3)nc21 | LD50 at 168 h | > 4000 mg/kg |
| CCn1cc(C(=O)O)c(=O)c2cc(F)c(N3CCN(C)CC3)nc21 | LD50 at 168 h | 210 mg/kg |
| C=Cn1cc(C(=O)O)c(=O)c2cc(Cl)c(N3CCNCC3)nc21 | LD50 at 168 h | > 2000 mg/kg |

Input line: Which value of LD50 at 168 h has been reported for `CCn1cc(C(=O)O)c(=O)c2cc(Cl)c(N3CCNCC3)cc21` in the records?
Output line: > 2000 mg/kg

Input line: Give its LD50 at 168 h value. Item: `CC1(C)S[C@@H]2[C@H](NC(=O)[C@H](N)c3ccccc3)C(=O)N2[C@H]1C(=O)O`
Output line: > 5000 mg/kg

----------
test system: Enterobacter cloacae P-2540; assay: In vitro antibacterial activity (MIC), Enterobacter cloacae P-2540; assay type: cell-based; conditions: P2540; Enterobacter cloacae P-2540; read-out: minimum inhibitory concentration (MIC)
Where a name gives a salt, the structure may show the parent alone.
MEASUREMENT LABEL: MIC (µg/mL)
Report the figure in µg/mL without appending any unit label.

Illustrative cases are given below, each with its answer.
| COMPOUND | U | MIC |
| --- | --- | --- |
| C=Cn1cc(C(=O)O)c(=O)c2cc(F)c(N3CCNCC3)nc21 | µg/mL | 1 |
| CC1(C)S[C@@H]2[C@H](NC(=O)C(C(=O)Oc3ccc4c(c3)CCC4)c3ccccc3)C(=O)N2[C@H]1C(=O)O (stereo partly shown) [G, sodium salt] | µg/mL | 3.13 |
| C=Cn1cc(C(=O)O)c(=O)c2cc(Cl)c(N3CCNCC3)nc21 | µg/mL | 0.2 |
| CCn1cc(C(=O)O)c(=O)c2cc(F)c(N3CCN(C)CC3)nc21 | µg/mL | 0.39 |
| CCn1cc(C(=O)O)c(=O)c2cc(F)c(N3CCNCC3)nc21 | µg/mL | 0.2 |

Input line: MIC lookup needed for `CCn1cc(C(=O)O)c(=O)c2cc(Cl)c(N3CCNCC3)nc21.Cl` , thanks.
Output line: 0.78
